# System: 786-0 renal
# Protocol summary: NCI-60 one-dose screen, 48 h (100 = growth as untreated, 0 = no growth, -100 = all killed)
# Condition set: 10 µM unless noted
The panel holds about 83,000 compounds, 20% with a hit somewhere; the sample as a whole holds those more often.
Below, each of the compounds is paired with its reported growth value.
Reply with just the number (in %).

Compound	Uom	Observed measurement
COc1cc2nc(Cl)nc(Nc3cccc(C4=Nc5c(N)nc(N)nc5NC(c5ccc(Cl)cc5)C4)c3)c2cc1OC (stereo not given)	%	-52.1

Input line: So what's the measured growth for this one? Fc1ccc(-c2cc3nc(C(Cl)Cl)nc(-c4ccco4)n3n2)cc1
Output line: 33.2

Input line: Now this one: CC1=N[C@@H]2CN(C(=O)OC(C)(C)C)C[C@@H]2n2c1cc1ccccc1c2=O
Output line: 102

Input line: Now this one: NC(N)=Nc1ccc(Oc2cccc(Nc3cccc(C(F)(F)F)c3)c2)cn1
Output line: 33.7

Input line: Now this one: O=C(O)c1ccc(-n2cc(CNc3cc(F)c(F)c(F)c3)c(-c3ccc(F)cc3)n2)cc1
Output line: 109

* * *

# System: NCI-H226 lung
# Protocol summary: NCI-60 one-dose screen, 48 h (100 = growth as untreated, 0 = no growth, -100 = all killed)
# Condition set: 10 µM unless noted
Compounds without any hit were thinned out: in the full panel of roughly 83,000, 20% have a hit.
Below, each of the molecules is paired with its reported growth value.
Reply with just the number (in %).

Molecule	growth, %
COc1cccc(O)c1/C=C(/C)c1ccc2c(OC)cccc2[o+]1	105
COc1ccc(COc2ccc(/C=C3\C(=O)Nc4ccccc43)cc2OC)cc1	103
COc1cc(OC)c(S(N)(=O)=O)cc1C(=O)/C=C/c1ccc(C)cc1	-2.47
COc1ccc(S(=O)(=O)NCCCNc2nccc(-c3cn(C(C)(C)C)nc3-c3ccc(Cl)c(OC)c3)n2)cc1	73.6
O=C(CSc1nnc(-c2ccc3nc(-c4ccccc4)[nH]c3c2)o1)Nc1ccc(C(=O)/C=C/c2ccccc2)cc1	106

Input line: So what's the measured growth for this one? C#C[C@]1(O)CC[C@H]2[C@@H]3CC=C4c5sc(-c6cccc(O)c6)nc5CC[C@]4(C)[C@H]3CC[C@@]21C
Output line: -29.4

* * *

# Test system: NCI-H522 lung
# Protocol summary: NCI-60 one-dose screen, 48 h (100 = growth as untreated, 0 = no growth, -100 = all killed)
# Condition set: 10 µM unless noted
This is part of a sample that, as a whole, favours compounds with a hit. Of some 83,000 tested, about 20% had one in any assay.
// bucketize growth: low band: < 70%; middle band: ≥ 70% and < 90%; high band: ≥ 90%

Check out these entries, answers already filled in.
Compound	Qualitative label
NS(=O)(=O)c1ccc(Nc2nc(N/N=C/c3ccc(Cl)cc3)nc(Nc3ccccc3)n2)cc1	middle band
C=CCOc1cccc(/C=C2\SC(=S)N(C3CC(=O)N(c4ccc(Br)cc4)C3=O)C2=O)c1 (centres undefined)	high band
Cc1nn(-c2ccccc2)c2ncnc(N/N=C/c3ccccc3)c12	middle band
CC(=O)c1nnn(-c2c(C(=O)n3nc(C)cc3C)sc(=S)n2-c2ccccc2)c1C	high band
O=C(CSc1nc2ccccc2c(=O)n1-c1ccccc1)Nc1ccc(-c2nc3ccc([N+](=O)[O-])cc3[nH]2)cc1	middle band

Input line: Which class does CCNC(=O)N1CCc2cc(OC)c(OCCc3ccc(OC)cc3)cc2C1c1ccc(Cl)cc1C (centres undefined) fall in?
Output line: low band

Input line: Now this one: Cn1cc(-c2nc(N)nnc2-c2c[nH]c3ccc(Br)cc23)c2cc(Br)ccc21
Output line: low band
